The origin of these recorded values is ChEMBL document CHEMBL1201862.

# Experimental target: Induced myeloid leukemia cell differentiation protein Mcl-1 (Homo sapiens, UniProt Q07820)
# Sequence (Q07820 whole entry): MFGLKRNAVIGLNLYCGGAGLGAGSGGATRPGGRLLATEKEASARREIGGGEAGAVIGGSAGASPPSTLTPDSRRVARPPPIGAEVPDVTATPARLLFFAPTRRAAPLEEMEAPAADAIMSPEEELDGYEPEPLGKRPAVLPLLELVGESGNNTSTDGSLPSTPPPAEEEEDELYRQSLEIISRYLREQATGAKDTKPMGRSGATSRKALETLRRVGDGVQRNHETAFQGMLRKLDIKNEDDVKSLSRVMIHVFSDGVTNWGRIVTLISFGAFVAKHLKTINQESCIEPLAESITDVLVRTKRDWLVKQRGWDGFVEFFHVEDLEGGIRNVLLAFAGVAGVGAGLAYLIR
# Type: functional
Active and inactive are the calls of the source.
Recorded endpoint: IC50

Guide cases for IC50, answers given:
Cc1ccc(CSc2nnc(SCC(=O)N/N=C/c3c[nH]c4ccccc34)s2)cc1 : 3.91 µM (active)
CCN=c1ccc(Br)cc(C(=O)/C=C/c2ccc(Cl)cc2)c1O : 3.55 µM (active)
O=C(CSc1nnc(-c2ccco2)c(-c2ccco2)n1)c1ccccc1 : 3.19 µM (active)
Cc1ccccc1/C=N/Nc1ccnc2cc(Cl)ccc12 : 5.13 µM (active)
C/C(=N\NC(=O)c1cccc(N/N=C(\C)c2ccco2)c1)c1ccco1 : 3.19 µM (active)

Asked: Requested field: IC50. Item: `O=C(N/N=C/c1ccc(O)c(O)c1)c1ccc(CSc2cccc3cccnc23)cc1`
Given back: 4.61 µM (active)

Asked: Requested field: IC50. Item: `CSCc1nc2sc(C(=O)Nc3nc(C)cs3)c(C)c2c(=O)[nH]1`
Given back: 3.89 µM (active)

Asked: Requested field: IC50. Item: `CCN1C(=O)/C(=C/c2ccc3c(c2)CCN3CCCCl)C(=O)NC1=S`
Given back: 3.4 µM (active)

Asked: Requested field: IC50. Item: O=C(O)C[C@@H]1C(=O)O[C@@H]2C(COC(=O)c3cc(O)c(O)c(O)c3)O[C@@H](OC(=O)c3cc(O)c(O)c(O)c3)[C@@H](OC(=O)c3cc(O)c(O)c4c3[C@H]1[C@H](O)C(=O)O4)[C@H]2OC(=O)c1cc(O)c(O)c(O)c1 (some centres undefined)
Given back: 1.52 µM (active)

---

# Method description: HEp-2 cell cytotoxicity, dose response, cytotoxicity control for RSV inhibitor project, HTS (AID 2410)
# Format: functional
# Condition set: human respiratory syncytial virus
Calls of active or inactive are those of the source.
# Lookup of reported CC50 keyed by entry

Guide cases for CC50, answers given:
COc1ccc(CCNC(=O)c2ccc(-c3ccc([N+](=O)[O-])cc3Cl)o2)cc1 : 33.6 µM (active)
CC(Sc1nnc(Nc2ccccc2)s1)C(=O)Nc1nc(-c2ccccc2)cs1 (stereo not given) : > 50 µM (active)
CCOc1ccccc1C(=O)Nc1cc2c(cc1N1CCCC1)n(CC)c(=O)n2CC : 13.5 µM (active)
c1ccc(-n2nnc3c(N4CCOCC4)ncnc32)cc1 : 23.6 µM (active)

# input for lookup
Asked: Requested field: CC50. Item: `O=S(=O)(c1ccccc1)N1CCC(c2nc(O)c3nnn(Cc4c(F)cccc4Cl)c3n2)CC1`
Given back: 26 µM (active)

---

# Experimental target: Fatty acid synthase (Homo sapiens, UniProt P49327)
# Method description: FAS thioesterase domain inhibitors, dose response, biochemical, kinetic fluorescence intensity (AID 624326);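 further: rate of fluorescence rise from hydrolysis of a fluorogenic O-methyl fluorescein ester substrate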
# Type: functional
The source made the active and inactive calls.
The categories you may choose from are TRUE for active, FALSE for inactive

Asked: What is the recorded call for this compound in the test? Cc1cccc(C)c1/N=C1\C(Cl)=C(O)OC1OC(=O)c1ccccc1 (stereo not drawn)
Given back: TRUE

---

Below are AC50 values measured for UniProt P11712.
Sequence (P11712 whole entry): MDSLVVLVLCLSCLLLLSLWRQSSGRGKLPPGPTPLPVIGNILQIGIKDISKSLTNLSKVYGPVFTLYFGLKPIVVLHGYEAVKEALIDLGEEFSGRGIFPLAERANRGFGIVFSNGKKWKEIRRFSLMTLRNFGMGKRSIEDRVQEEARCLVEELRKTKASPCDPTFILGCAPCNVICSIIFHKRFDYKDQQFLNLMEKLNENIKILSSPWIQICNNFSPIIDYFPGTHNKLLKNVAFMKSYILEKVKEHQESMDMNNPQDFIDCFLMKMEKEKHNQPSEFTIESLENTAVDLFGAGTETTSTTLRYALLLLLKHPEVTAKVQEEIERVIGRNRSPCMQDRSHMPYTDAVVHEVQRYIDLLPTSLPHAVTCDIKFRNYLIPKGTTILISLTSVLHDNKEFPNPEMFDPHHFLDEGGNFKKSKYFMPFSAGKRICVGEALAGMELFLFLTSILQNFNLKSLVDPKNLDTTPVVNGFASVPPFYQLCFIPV

Guide cases for AC50, answers given:
Cc1nc2cnc(N(C)C)nc2n(Cc2ccc(F)cc2)c1=O : inconclusive
COc1ccc(Oc2ncc3nc(-c4cn(C)c5ccccc45)c(=O)n(C)c3n2)cc1 : inconclusive
CCC(=O)Nc1cccc(-c2nnc(-c3cccc(NC(=O)CC)c3)o2)c1 : inconclusive
COc1ccc2[nH]cc(CCN(C)C)c2c1 : inconclusive
COc1ccccc1CNc1cc(-c2cccc(NS(C)(=O)=O)c2)ncn1 : inconclusive

# input for lookup
Asked: Requested field: AC50. Item: `O=C(NCc1ccccn1)c1cc(-c2ccccc2Cl)on1`
Given back: inconclusive

---

# Experimental target: Peroxisome proliferator-activated receptor gamma/Nuclear receptor coactivator 3 (Homo sapiens)
# Sequence (P37231 whole entry): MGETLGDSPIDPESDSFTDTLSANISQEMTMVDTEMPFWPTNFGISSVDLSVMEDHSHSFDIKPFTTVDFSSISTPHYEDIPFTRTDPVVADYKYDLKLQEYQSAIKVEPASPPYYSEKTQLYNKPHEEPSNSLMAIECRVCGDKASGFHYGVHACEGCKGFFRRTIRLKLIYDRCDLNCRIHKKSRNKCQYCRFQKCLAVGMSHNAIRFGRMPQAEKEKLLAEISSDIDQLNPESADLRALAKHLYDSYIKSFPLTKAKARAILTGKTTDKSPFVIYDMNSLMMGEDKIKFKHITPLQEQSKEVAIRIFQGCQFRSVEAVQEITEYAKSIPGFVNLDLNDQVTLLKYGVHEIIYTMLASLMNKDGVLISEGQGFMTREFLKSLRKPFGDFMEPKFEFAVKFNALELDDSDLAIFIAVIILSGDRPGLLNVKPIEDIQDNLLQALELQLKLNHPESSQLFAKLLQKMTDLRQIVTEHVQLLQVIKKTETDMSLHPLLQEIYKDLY
# Sequence (Q9Y6Q9 whole entry, further chain): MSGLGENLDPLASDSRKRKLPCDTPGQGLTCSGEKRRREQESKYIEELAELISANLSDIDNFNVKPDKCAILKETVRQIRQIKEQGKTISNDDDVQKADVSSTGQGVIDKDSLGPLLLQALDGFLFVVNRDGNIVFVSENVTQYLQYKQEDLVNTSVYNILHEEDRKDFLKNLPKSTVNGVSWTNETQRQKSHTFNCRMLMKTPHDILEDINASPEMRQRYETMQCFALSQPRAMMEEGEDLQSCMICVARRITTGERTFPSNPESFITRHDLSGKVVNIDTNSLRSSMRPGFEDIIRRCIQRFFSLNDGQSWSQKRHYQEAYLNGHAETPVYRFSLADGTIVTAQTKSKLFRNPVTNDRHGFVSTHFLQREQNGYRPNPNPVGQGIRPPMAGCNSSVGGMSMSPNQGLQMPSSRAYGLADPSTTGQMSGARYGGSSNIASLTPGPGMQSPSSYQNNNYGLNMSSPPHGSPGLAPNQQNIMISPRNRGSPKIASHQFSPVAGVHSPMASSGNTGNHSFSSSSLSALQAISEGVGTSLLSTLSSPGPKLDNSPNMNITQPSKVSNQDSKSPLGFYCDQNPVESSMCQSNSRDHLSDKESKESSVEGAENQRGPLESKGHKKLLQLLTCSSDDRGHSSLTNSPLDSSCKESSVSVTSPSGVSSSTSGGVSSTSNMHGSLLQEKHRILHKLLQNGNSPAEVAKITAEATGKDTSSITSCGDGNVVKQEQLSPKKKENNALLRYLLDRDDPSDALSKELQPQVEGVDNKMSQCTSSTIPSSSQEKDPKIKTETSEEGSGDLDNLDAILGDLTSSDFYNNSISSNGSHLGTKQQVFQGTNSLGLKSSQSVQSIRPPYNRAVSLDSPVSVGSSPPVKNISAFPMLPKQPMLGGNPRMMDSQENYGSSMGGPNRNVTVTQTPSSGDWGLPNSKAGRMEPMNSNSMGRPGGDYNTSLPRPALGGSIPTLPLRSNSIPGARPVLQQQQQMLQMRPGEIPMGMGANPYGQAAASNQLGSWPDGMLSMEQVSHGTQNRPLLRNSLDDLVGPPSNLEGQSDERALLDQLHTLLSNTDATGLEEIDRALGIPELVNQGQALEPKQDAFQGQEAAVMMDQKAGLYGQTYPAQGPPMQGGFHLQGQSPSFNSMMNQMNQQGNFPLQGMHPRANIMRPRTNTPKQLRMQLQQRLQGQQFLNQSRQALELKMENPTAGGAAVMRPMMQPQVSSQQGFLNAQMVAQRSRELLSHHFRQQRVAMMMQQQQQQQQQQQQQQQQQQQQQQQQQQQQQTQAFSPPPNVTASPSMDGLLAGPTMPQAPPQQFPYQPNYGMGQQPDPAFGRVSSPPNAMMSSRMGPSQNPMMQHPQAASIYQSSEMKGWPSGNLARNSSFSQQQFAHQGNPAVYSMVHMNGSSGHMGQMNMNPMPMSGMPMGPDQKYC
# Method description: TR-FRET dose response biochemical High Throughput Screening assay for agonists of the steroid receptor coactivator 3 (SRC-3) recruitment by the peroxisome proliferator-activated receptor gamma (PPAR gamma): non-selective agonists. [Related pubchem assays: 1301 (Confirmation screen.), 1048 (Primary screen.)]
# Format: functional
Active and inactive are the calls of the source.
Recorded endpoint: EC50

Guide cases for EC50, answers given:
COc1ccc(OC)c(C2C(C(=O)c3cc4ccccc4o3)=C(O)C(=O)N2c2cc(C)on2)c1 (centres undefined) : > 79.4 µM (not active)
CCOC(=O)N1CCC(NC(=O)CSc2cc(=O)n(C)c3ccccc23)CC1 : > 79.4 µM (not active)
Cn1c(=O)cc(SCC(=O)N2CCN(Cc3ccc4c(c3)OCO4)CC2)c2ccccc21 : > 79.4 µM (not active)

# input for lookup
Asked: Requested field: EC50. Item: CCCC1O[C@@H]2CC3C4CCC5=CC(=O)C=C[C@]5(C)C4C(OC(C)=O)C[C@]3(C)[C@]2(C(=O)COC(C)=O)O1 (some centres undefined)
Given back: 4.66 µM (active)

---

# Method description: inhibitors of intracellular T. cruzi replication, confirmation, NIH3T3 host cells, beta-gal luminescence (AID 2044);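 further: intracellular parasites grown in NIH/3T3 mouse fibroblasts as host cells; luminescent beta-galactosidase reporter signal from transgenic T. cruzi replicating inside host cells; inhibitors lower the luminescence signal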
# Type: functional, cell-based
Calls of active or inactive are those of the source.
Recorded endpoint: EC50

Guide cases for EC50, answers given:
CCOC(=O)c1c(NC(=O)CSc2n[nH]c3c4ccccc4nc-3n2)sc2c1CCN(C)C2 : 0.161 µM (active)
CCOC(=O)c1cnc2ccc(C)cc2c1Sc1ccccc1C(=O)OC : 4.01 µM (active)

# input for lookup
Asked: Requested field: EC50. Item: `O=[N+]([O-])c1cccnc1S(=O)(=O)c1ccccc1`
Given back: 3.71 µM (active)

---

# Experimental target: Streptokinase A (Streptococcus pyogenes serotype M1, UniProt P10520)
# Sequence (P10520 whole entry): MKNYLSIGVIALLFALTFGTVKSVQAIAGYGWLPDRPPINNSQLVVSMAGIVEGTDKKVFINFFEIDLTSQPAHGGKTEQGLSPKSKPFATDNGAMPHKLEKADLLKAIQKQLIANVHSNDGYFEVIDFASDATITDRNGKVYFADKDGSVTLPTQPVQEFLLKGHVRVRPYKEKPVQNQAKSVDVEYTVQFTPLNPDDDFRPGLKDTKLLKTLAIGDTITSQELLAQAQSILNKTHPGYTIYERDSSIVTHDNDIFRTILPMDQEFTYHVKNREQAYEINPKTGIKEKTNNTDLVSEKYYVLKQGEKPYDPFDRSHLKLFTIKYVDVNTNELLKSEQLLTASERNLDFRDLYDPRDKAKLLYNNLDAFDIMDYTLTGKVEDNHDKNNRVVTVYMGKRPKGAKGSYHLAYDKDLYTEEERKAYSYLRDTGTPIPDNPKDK
# Method description: S. pyogenes streptokinase expression inhibitors, potency, dose response, plasminogen activation absorbance, OD405 (AID 1914);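 further: secreted streptokinase activity via plasminogen activation per viability signal from cell pellet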
# Assay type: functional, Streptococcus pyogenes M1 GAS
Active and inactive are the calls of the source.
Recorded endpoint: EC50

Guide cases for EC50, answers given:
Cc1ccc(/C=C/C(=O)C2C(=O)c3ccccc3C2=O)cc1 : > 150 µM (not active)
COc1cccc(-c2coc3cc4oc(=O)c(CCC(=O)O)c(C)c4cc23)c1 : > 150 µM (not active)
CCN(c1ccc(C)cc1C)S(=O)(=O)c1nnc(NC(=O)c2ccco2)s1 : 17.5 µM (active)
N=C1/C(=C\c2ccc(OC(=O)c3ccccc3Cl)cc2)C(=O)N=C2SC(N3CCOCC3)=NN12 : > 150 µM (not active)

Asked: Requested field: EC50. Item: `Cc1cc(C)n(-c2nc(C)nc(NCc3ccccc3)n2)n1`
Given back: > 150 µM (not active)

---

# Method description: Shn3 3'UTR reporter inhibitors, dose response, cell-based, Clone20 osteoblasts, firefly luciferase, cherry-picked (AID 624132);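 further: firefly luciferase luminescence from reporter carrying the Shn3 3'UTR in osteoblasts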
# Format: functional
Active and inactive are the calls of the source.
Recorded endpoint: AC50

Guide cases for AC50, answers given:
COc1cccc(-n2c(C)nc3c(cnn3-c3ccc(Cl)cc3)c2=O)c1 : 0.391 µM (active)
C=CC[C@H](CC(=O)N(CCO)Cc1ccccc1)C(=O)NC[C@H](OC(=O)[C@@H](CC=C)Cc1ccc(F)cc1)c1ccccc1 : 10.7 µM (active)
CCCCNc1cc(C)nc(NCc2ccccc2)n1 : 0.719 µM (active)

# input for lookup
Asked: Requested field: AC50. Item: CCc1ccc(NC(=O)C2CCN(S(=O)(=O)c3ccc4c(c3)NC(=O)C(C)S4)CC2)cc1 (centres undefined)
Given back: 7.08 µM (active)

---

# Experimental target: Long-chain-fatty-acid--AMP ligase FadD28 (Mycobacterium tuberculosis, UniProt P9WQ59)
# Sequence (P9WQ59 whole entry): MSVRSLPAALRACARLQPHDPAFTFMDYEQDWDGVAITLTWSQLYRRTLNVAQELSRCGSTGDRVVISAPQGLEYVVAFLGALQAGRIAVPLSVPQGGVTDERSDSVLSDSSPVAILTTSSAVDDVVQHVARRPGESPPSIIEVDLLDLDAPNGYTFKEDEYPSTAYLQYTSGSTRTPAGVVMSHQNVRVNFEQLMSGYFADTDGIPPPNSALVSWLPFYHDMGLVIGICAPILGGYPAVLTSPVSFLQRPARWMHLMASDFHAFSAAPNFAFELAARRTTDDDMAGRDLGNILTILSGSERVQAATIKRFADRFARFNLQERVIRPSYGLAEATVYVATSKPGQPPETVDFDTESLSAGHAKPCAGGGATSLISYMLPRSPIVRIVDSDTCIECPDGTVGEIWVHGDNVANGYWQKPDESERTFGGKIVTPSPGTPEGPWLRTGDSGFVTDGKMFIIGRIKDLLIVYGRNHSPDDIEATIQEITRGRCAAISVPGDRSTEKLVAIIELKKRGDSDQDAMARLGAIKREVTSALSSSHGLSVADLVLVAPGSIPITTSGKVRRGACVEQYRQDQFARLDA
# Method description: Fluorescence polarization aasay to screen for inhibitors that compete for the binding of FadD28 to a bisubstrate Measured in Biochemical System Using Plate Reader - 2147-01_Inhibitor_Dose_CherryPick_Activity.
# Assay type: functional, Mycobacterium tuberculosis H37Rv
Active and inactive are the calls of the source.
The categories you may choose from are active, inactive

Solved entries:
Cc1cccc(NC(=O)COC(=O)c2cccc(S(=O)(=O)N3CCCCCC3)c2)c1 : active
CCOc1ccc(NC(=O)C2C(C(=O)O)C3(Cl)C(Cl)=C(Cl)C2(Cl)C3(Cl)Cl)cc1 (configuration not stated) : active
O=C(NN1C(=O)/C(=C/c2ccc(O)cc2)SC1=S)c1ccccc1O : active
S=C(NCc1ccccc1)NCc1cccc(CNC(=S)NCc2ccccc2)c1 : active
Cc1cccc(NC(=O)CN2C(=O)N/C(=C/c3ccc(-c4cccc(C(=O)O)c4C)o3)C2=O)c1 : active

Asked: What is the recorded call for this molecule in the test? `O=C(O)c1ccc(-c2nc(-c3ccccc3)c(-c3ccccc3)[nH]2)cc1`
Given back: active

Asked: What is the recorded call for this molecule in the test? COc1ccc(OC)c(C2C(C(=O)c3cc4ccccc4o3)=C(O)C(=O)N2c2cc(C)on2)c1 (configuration not stated)
Given back: inactive
